// data source = paper PMC10132805

target_of_assay: V domain of programmed cell death 6-interacting protein (ALIX V) (human) (UniProt Q8WUM4)
Sequence (Q8WUM4 whole entry): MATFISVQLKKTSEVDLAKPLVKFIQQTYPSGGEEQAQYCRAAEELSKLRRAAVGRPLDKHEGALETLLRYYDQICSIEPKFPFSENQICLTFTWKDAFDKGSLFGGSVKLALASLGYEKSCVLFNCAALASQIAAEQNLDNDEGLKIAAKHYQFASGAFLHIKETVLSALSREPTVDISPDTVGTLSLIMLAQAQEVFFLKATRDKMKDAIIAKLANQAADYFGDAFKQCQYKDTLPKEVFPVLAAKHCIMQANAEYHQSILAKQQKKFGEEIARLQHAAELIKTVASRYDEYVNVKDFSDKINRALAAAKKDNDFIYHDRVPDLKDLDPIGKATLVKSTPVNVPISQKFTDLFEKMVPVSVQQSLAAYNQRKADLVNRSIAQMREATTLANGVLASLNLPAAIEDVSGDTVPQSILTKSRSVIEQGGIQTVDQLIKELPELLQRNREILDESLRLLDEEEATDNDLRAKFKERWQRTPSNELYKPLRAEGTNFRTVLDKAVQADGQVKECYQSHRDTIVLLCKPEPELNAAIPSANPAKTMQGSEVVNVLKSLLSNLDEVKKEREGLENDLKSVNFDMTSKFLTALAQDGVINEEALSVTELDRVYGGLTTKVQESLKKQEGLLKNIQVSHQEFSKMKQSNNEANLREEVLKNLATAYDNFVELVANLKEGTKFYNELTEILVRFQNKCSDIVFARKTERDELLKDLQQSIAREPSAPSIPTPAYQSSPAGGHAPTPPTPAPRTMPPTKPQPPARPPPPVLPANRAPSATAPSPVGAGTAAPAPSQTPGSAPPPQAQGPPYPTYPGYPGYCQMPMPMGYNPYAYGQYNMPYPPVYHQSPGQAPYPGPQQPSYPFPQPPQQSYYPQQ
experimental_endpoint: Kd
Put down the number, then write its unit next to it.

[[record]]
binder = "PPPVLYPNLAELENYM [SDCBP2 39-54 (Human)]"
recorded_result = "2100 nM"


Query: Suppose we examine the binder MSSLYPSLEDLKVDQA [SDCBP2 1-16 (Human)] ; what Kd value has been reported?
Result: 290 nM
